# ASSAY SYSTEM: Leukotriene B4 receptor 1 (Homo sapiens)
# Sequence (Q15722 whole entry): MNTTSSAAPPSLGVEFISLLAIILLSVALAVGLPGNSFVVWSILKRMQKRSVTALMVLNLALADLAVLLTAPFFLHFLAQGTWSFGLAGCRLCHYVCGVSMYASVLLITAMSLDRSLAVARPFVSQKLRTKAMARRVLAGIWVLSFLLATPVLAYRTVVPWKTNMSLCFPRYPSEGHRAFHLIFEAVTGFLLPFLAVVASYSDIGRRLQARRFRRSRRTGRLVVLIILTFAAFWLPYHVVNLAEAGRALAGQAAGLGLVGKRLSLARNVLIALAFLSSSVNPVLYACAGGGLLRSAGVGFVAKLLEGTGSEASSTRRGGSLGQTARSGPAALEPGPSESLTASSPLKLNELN
# PROTOCOL SUMMARY: Displacement of [3H]LTB4 from LTB4 receptor in human neutrophils

{"CHEMICAL STRING": "CC1(C)CCC[C@]2(C)[C@H]3Cc4c(OS(=O)(=O)O)ccc(OS(=O)(=O)O)c4CO[C@]3(C)CC[C@@H]12", "IC50 (µM)": 44.5}
